Taken from patent US8658604B2.

- assayed.system: Thrombin, from Human Plasma (Homo sapiens, UniProt P00734)
- assay.explanation: Enzymatic assay, thrombin
Where a SMILES comes first, the peptide text is derived from it.
endpoint.name: Thrombin at 100 μM % (%)
Answer format: numeric, % implied, no suffix.

Task: Need Thrombin at 100 μM % of CC[C@H](C)[C@@H]1NC(=O)[C@H](C)NC(=O)[C@@H]2CCCN2C(=O)[C@H](CC(=O)O)NC(=O)[C@H](CO)NC(=O)[C@H](CCCCN)NC(=O)[C@H]([C@@H](C)O)NC(=O)[C@@H]2CSSC[C@H](NC1=O)C(=O)N[C@@H](CCCNC(=N)N)C(=O)N1CCC[C@@H]1C(=O)N1CCC[C@H]1C(=O)N[C@@H]([C@@H](C)CC)C(=O)N2 [Ex. 52] (HELM PEPTIDE1{I.C.T.K.S.D.P.A.I.C.R.[dP].P}$PEPTIDE1,PEPTIDE1,2:R3-10:R3|PEPTIDE1,PEPTIDE1,1:R1-13:R2$$$V2.0) , thanks.
Output: 8.7

---

- assayed.system: Trypsin, from human pancreas (Homo sapiens, UniProt P07477)
Where a SMILES comes first, the peptide text is derived from it.
Form field: pIC50 (one value per entry).
Lab note: report pIC50 as minus log10 of the concentration in molar units, number only.

Task: Need pIC50 of CC[C@H](C)[C@@H]1NC(=O)[C@@H]2CCCN2C(=O)[C@H]2CCCN2C(=O)[C@H](CCCNC(=N)N)NC(=O)[C@@H]2CSSC[C@H](NC1=O)C(=O)N[C@@H]([C@@H](C)O)C(=O)N[C@@H](CCCCN)C(=O)N[C@@H](CO)C(=O)N[C@@H](CC(C)C)C(=O)N1CCC[C@H]1C(=O)N1CCC[C@H]1C(=O)N[C@@H]([C@@H](C)CC)C(=O)N2 [Ex. 180] (HELM PEPTIDE1{I.C.T.K.S.L.P.P.I.C.R.[dP].P}$PEPTIDE1,PEPTIDE1,2:R3-10:R3|PEPTIDE1,PEPTIDE1,1:R1-13:R2$$$V2.0) , thanks.
Output: 7.22

Task: Also CC[C@H](C)[C@@H]1NC(=O)[C@@H]2CCCN2C(=O)[C@H]2CCCN2C(=O)[C@H](CCCNC(=N)N)NC(=O)[C@@H]2CSSC[C@H](NC1=O)C(=O)N[C@@H]([C@@H](C)O)C(=O)N[C@@H](CCCCN)C(=O)N[C@@H](CO)C(=O)N[C@@H](CC(C)C)C(=O)N1CCC[C@H]1C(=O)N1CCC[C@H]1C(=O)N[C@@H]([C@@H](C)O)C(=O)N2 [Ex. 189] (HELM PEPTIDE1{I.C.T.K.S.L.P.P.T.C.R.[dP].P}$PEPTIDE1,PEPTIDE1,2:R3-10:R3|PEPTIDE1,PEPTIDE1,1:R1-13:R2$$$V2.0) ?
Output: 7.41

---

- assayed.system: CathepsinG, from human neutrophils (Homo sapiens, UniProt P08311)
- Sequence (P08311 21-244): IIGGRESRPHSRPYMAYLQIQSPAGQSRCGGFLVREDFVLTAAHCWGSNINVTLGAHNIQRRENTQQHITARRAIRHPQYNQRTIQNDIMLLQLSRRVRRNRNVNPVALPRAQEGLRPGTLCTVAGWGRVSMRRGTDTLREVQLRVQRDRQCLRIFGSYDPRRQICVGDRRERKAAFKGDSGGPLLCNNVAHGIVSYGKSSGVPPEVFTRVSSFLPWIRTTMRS
- assay.explanation: Enzymatic assay, cathepsin G
- test.conditions: Cathepsin G IC50
Where a SMILES comes first, the peptide text is derived from it.
endpoint.name: IC50 (nM)
Answer format: numeric, nM implied, no suffix.

[
  {
    "compound": "C[C@@H](O)[C@@H]1NC(=O)[C@@H]2CSSC[C@H](NC(=O)[C@H](Cc3ccc(O)cc3)NC(=O)[C@@H]3CCCN3C(=O)[C@@H]3CCCN3C(=O)[C@H](CC(=O)O)NC(=O)[C@H](CO)NC(=O)[C@H](CCCCN)NC1=O)C(=O)N[C@@H](Cc1ccc(O)cc1)C(=O)N1CCC[C@@H]1C(=O)N1CCC[C@H]1C(=O)N[C@@H](C1CCCCC1)C(=O)N2 [Ex. 65] (HELM PEPTIDE1{[O=C([C@@H](N[*:1])C1CCCCC1)[*:2]].C.T.K.S.D.P.P.Y.C.Y.[dP].P}$PEPTIDE1,PEPTIDE1,2:R3-10:R3|PEPTIDE1,PEPTIDE1,1:R1-13:R2$$$V2.0)",
    "endpoint.name": "IC50",
    "unit": "nM",
    "measurement": 47
  }
]

Task: Need IC50 of CC[C@H](C)[C@@H]1NC(=O)[C@@H]2CCCN2C(=O)[C@H]2CCCN2C(=O)[C@H](CCCNC(=N)N)NC(=O)[C@@H]2CSSC[C@H](NC1=O)C(=O)N[C@@H]([C@@H](C)O)C(=O)N[C@@H](CCCCN)C(=O)N[C@@H](CO)C(=O)N[C@@H](CC(=O)O)C(=O)N1CCC[C@H]1C(=O)N1CCC[C@H]1C(=O)N[C@@H](CCC(N)=O)C(=O)N2 [Ex. 17] (HELM PEPTIDE1{I.C.T.K.S.D.P.P.Q.C.R.[dP].P}$PEPTIDE1,PEPTIDE1,2:R3-10:R3|PEPTIDE1,PEPTIDE1,1:R1-13:R2$$$V2.0) , thanks.
Output: 55
